Below is a list of entries, each paired with its recorded Efficacy (%) value.
Molecular target: human FXR (NR1H4) (Homo sapiens)
Construct: host or cells: CHO (Chinese hamster ovary) reporter cells
Sequence (Q96RI1 1-486): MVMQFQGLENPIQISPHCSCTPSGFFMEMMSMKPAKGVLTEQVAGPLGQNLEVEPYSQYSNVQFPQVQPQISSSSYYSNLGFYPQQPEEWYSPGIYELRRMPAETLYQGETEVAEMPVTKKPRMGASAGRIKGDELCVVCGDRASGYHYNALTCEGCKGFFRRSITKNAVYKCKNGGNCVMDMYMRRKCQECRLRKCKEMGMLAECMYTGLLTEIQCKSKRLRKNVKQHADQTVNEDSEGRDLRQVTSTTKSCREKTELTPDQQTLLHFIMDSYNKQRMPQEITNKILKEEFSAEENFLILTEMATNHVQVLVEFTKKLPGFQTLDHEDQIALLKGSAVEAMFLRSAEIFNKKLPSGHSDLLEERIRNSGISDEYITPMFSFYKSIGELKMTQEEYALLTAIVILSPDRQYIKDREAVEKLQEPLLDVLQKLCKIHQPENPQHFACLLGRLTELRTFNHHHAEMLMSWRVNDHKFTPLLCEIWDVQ
Assay: Human FXR (NR1H4) Assay (Gal4 promoter driven luciferase reporter, CHO cells)
Format: cell-based
Conditions: efficacy normalized to CDCA set as 100%
Lab book: enter the figure in %, no units written.

In the examples that follow, each entry is paired with its recorded Efficacy (%).
CC[C@H]1[C@@H](O)[C@@H]2[C@H](CC[C@]3(C)[C@@H]([C@H](C)CCCCS(=O)(=O)N(C)Cc4ccccc4)CC[C@@H]23)[C@@]2(C)CC[C@@H](O)C[C@@H]12: 97
CC[C@H]1[C@@H](O)[C@@H]2[C@H](CC[C@]3(C)[C@@H]([C@H](C)CCS(N)(=O)=O)CC[C@@H]23)[C@@]2(C)CC[C@@H](O)C[C@@H]12: 118
C[C@H](CCC(=O)N(O)C1CCCCC1)[C@H]1CC[C@H]2[C@@H]3[C@H](O)C[C@@H]4C[C@H](O)CC[C@]4(C)[C@H]3CC[C@]12C: 2
CC[C@H]1[C@@H](O)[C@@H]2[C@H](CC[C@]3(C)[C@@H]([C@H](C)/C=C/S(N)(=O)=O)CC[C@@H]23)[C@@]2(C)CC[C@@H](O)C[C@@H]12: 3

Short answer for CC[C@H]1[C@@H](O)[C@@H]2[C@H](CC[C@]3(C)[C@@H]([C@H](C)CCCS(N)(=O)=O)CC[C@@H]23)[C@@]2(C)CC[C@@H](O)C[C@@H]12 : Efficacy (%) was 202
